System: REH
Assay: Antiproliferative activity against human menin-insensitive REH cells assessed as inhibition of cell growth incubated for 7 days by MTS assay
Format: functional, cell-based
Settings: 168 h
reported property: IC50 (µM)

| molecule | system | reported property | comparative sign | recorded result |
| --- | --- | --- | --- | --- |
| CCC(=O)N1CC(S(=O)(=O)c2ccc(N3CC(CN4CCN(c5ncncc5Nc5ccc(F)cc5C(=O)N(C(C)C)C(C)C)CC4)C3)cc2)C1 | REH | IC50 | > | 20 |
| CCC(=O)N[C@@H]1CCN(S(=O)(=O)c2ccc(N3CC(CN4CCN(c5ncncc5Nc5ccc(F)cc5C(=O)N(CC)C(C)C)CC4)C3)cc2)C1 | REH | IC50 | > | 20 |
| C=CC(=O)Nc1cccc(N2CC(CN3CCN(c4ncncc4Nc4ccc(F)cc4C(=O)N(C(C)C)C(C)C)CC3)C2)c1 | REH | IC50 | = | 4.42 |
| CCN(C(=O)c1cc(F)ccc1Nc1cncnc1N1CCN(CC2CN(c3ccc(S(=O)(=O)N4CC[C@@H](NC(=O)/C=C/CN(C)C)C4)cc3)C2)CC1)C(C)C | REH | IC50 | > | 20 |
| CCN(C(=O)c1cc(F)ccc1Nc1cncnc1N1CCN(CC2CN(c3ccc(S(=O)(=O)C4CN(C(=O)/C=C/CN(C)C)C4)cc3)C2)CC1)C(C)C | REH | IC50 | = | 1.93 |
| C=CC(=O)N1CC(S(=O)(=O)c2ccc(N3CC(CN4CCN(c5ncncc5Nc5ccc(F)cc5C(=O)N(C(C)C)C(C)C)CC4)C3)cc2)C1 | REH | IC50 | = | 4.81 |
| C=CC(=O)NC1CN(S(=O)(=O)c2ccc(N3CC(CN4CCN(c5ncncc5Nc5ccc(F)cc5C(=O)N(CC)C(C)C)CC4)C3)cc2)C1 | REH | IC50 | > | 20 |
| C=CC(=O)N[C@H]1CCN(S(=O)(=O)c2ccc(N3CC(CN4CCN(c5ncncc5Nc5ccc(F)cc5C(=O)N(CC)C(C)C)CC4)C3)cc2)C1 | REH | IC50 | > | 20 |
| C=CC(=O)N[C@@H]1CCN(S(=O)(=O)c2ccc(N3CC(CN4CCN(c5ncncc5Nc5ccc(F)cc5C(=O)N(CC)C(C)C)CC4)C3)cc2)C1 | REH | IC50 | > | 20 |
| CCN(C(=O)c1cc(F)ccc1Nc1cncnc1N1CCN(CC2CN(c3ccc(S(=O)(=O)C4CN(C(=O)/C=C/CN(C)C)C4)cc3)C2)C(C)C1)C(C)C (stereo unspecified) | REH | IC50 | = | 8.4 |
| CCN(C(=O)c1cc(F)ccc1Oc1cncnc1N1CCN(CC2CN(c3ccc(S(=O)(=O)C4CN(C(=O)/C=C/CN(C)C)C4)cc3)C2)CC1)C(C)C | REH | IC50 | = | 11.4 |

----------
Target: Menin/Histone-lysine N-methyltransferase MLL (Homo sapiens, UniProt O00255)
Sequence (O00255 whole entry): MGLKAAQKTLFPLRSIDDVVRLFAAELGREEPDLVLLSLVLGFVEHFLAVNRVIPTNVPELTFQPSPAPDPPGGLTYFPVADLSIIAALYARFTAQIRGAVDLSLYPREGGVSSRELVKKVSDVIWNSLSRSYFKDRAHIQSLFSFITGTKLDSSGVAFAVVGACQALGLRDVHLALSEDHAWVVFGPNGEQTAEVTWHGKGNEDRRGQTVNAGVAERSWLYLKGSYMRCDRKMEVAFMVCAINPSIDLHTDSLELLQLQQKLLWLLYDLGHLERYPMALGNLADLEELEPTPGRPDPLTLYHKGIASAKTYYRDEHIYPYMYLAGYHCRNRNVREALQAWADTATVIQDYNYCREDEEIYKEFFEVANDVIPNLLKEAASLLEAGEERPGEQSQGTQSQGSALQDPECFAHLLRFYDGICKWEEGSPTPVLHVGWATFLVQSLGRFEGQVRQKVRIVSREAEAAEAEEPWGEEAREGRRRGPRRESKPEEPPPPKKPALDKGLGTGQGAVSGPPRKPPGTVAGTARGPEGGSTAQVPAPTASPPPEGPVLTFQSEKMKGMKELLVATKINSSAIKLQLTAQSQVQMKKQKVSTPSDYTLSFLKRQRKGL
Sequence (Q03164 1-2718 partner limits assumed): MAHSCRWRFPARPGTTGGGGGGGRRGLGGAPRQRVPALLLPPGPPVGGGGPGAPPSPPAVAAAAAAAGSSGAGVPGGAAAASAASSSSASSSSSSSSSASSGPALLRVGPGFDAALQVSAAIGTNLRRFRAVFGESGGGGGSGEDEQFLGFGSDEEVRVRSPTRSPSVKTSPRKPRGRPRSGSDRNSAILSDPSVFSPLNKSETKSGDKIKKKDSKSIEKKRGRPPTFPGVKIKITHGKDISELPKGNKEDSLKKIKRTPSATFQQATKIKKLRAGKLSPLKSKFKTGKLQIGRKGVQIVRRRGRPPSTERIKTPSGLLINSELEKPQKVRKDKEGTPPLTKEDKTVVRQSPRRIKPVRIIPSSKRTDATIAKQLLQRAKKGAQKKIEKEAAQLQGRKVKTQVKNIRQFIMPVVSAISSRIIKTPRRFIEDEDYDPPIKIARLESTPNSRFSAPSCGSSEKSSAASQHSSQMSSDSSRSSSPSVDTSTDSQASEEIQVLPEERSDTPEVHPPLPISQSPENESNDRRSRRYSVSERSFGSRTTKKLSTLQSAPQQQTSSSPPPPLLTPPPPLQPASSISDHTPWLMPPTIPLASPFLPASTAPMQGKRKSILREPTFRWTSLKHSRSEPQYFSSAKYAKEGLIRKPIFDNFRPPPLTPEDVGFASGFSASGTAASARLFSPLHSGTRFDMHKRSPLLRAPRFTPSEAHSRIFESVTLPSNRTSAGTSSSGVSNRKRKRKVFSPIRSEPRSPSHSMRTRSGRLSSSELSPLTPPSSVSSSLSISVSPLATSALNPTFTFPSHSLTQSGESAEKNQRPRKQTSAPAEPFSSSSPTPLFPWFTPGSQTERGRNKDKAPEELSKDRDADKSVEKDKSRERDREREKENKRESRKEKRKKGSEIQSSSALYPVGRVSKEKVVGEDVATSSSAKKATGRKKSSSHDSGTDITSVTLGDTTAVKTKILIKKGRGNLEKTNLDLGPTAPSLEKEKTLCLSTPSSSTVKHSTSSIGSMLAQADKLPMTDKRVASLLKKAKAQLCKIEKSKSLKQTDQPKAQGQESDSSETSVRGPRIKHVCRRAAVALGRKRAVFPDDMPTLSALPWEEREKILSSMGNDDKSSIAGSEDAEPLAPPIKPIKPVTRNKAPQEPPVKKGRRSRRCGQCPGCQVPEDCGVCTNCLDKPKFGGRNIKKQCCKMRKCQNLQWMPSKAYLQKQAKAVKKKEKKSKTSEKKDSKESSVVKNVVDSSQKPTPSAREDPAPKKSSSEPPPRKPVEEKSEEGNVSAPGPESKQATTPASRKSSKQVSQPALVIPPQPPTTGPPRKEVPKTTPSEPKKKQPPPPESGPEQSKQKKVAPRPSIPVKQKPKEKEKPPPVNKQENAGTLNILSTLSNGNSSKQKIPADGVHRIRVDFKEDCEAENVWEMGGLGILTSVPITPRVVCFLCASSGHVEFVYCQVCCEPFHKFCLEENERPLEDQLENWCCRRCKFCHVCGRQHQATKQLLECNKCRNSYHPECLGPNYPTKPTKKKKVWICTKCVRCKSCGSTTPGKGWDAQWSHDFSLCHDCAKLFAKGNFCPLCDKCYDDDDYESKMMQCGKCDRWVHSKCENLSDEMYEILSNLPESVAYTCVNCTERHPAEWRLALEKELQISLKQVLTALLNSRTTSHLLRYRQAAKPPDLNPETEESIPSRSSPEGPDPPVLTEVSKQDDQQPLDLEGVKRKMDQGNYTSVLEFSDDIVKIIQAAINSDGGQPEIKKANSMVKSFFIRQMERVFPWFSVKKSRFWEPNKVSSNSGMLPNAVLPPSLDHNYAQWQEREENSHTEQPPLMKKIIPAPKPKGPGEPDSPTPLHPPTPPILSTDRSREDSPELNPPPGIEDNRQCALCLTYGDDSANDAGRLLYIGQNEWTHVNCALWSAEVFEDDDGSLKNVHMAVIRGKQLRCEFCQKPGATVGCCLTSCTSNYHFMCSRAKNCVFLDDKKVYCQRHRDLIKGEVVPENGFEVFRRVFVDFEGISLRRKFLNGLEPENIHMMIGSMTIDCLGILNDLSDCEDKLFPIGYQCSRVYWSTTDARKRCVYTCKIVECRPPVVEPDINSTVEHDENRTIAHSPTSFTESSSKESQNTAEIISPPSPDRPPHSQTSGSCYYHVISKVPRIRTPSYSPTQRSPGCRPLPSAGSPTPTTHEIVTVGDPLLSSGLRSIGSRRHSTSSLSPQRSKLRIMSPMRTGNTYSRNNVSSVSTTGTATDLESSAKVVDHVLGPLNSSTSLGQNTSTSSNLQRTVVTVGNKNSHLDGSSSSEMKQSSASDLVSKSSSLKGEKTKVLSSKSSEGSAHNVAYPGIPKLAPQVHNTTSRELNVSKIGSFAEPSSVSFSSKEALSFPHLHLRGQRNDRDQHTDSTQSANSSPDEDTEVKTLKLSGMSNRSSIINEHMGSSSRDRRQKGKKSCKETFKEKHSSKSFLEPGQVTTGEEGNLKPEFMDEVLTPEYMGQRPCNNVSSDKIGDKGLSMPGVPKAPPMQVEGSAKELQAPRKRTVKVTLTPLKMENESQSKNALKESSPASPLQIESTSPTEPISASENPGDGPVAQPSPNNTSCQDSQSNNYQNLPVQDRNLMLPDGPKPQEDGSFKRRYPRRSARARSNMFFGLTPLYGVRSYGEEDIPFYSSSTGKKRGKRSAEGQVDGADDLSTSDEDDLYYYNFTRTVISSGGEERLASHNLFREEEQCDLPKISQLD
Sequence (Q03164 2719-3969 partner limits assumed): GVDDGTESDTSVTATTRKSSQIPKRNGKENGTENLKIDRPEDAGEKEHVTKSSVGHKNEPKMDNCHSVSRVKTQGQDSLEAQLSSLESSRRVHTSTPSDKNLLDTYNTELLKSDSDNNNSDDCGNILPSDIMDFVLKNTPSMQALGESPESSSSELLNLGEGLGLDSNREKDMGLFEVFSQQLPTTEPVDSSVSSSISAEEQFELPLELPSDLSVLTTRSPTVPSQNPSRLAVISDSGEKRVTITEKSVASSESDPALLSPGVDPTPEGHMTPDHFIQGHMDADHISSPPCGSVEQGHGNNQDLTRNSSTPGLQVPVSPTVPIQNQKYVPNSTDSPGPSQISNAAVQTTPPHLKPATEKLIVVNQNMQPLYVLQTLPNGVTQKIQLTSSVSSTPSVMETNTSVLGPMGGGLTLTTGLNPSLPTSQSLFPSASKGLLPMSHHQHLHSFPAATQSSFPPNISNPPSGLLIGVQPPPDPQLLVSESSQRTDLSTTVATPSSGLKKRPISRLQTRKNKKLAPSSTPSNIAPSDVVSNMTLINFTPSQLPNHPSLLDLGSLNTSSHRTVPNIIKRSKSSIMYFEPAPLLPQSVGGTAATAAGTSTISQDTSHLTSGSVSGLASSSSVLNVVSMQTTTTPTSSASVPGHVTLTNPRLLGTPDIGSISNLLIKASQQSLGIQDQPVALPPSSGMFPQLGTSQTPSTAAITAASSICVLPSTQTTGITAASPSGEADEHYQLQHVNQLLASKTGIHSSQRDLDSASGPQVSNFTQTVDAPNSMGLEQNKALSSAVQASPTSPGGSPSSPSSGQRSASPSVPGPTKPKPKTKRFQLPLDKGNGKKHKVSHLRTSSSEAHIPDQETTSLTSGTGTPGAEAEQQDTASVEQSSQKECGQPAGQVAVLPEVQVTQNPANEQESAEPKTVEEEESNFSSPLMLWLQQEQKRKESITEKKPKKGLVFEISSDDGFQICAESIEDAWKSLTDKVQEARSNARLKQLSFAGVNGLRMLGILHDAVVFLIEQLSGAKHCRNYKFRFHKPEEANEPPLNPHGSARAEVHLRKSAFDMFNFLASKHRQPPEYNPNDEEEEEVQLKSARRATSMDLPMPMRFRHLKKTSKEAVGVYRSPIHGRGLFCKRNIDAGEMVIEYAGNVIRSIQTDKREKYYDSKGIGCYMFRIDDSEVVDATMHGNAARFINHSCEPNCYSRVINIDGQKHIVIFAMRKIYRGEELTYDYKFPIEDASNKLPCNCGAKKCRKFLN
Assay: Inhibition of menin (unknown origin)/N-terminal FITC-labeled MLL1 peptide (unknown origin) interaction incubated for 30 min by fluorescence polarization assay
This listing pairs molecules with measured IC50.
reported property: IC50

| molecule | reported property | recorded result |
| --- | --- | --- |
| C=CC(=O)N[C@H]1CCN(S(=O)(=O)c2ccc(N3CC(CN4CCN(c5ncncc5Nc5ccc(F)cc5C(=O)N(CC)C(C)C)CC4)C3)cc2)C1 | IC50 | 51.4 nM |
| CCN(C(=O)c1cc(F)ccc1Nc1cncnc1N1CCN(CC2CN(c3ccc(S(=O)(=O)C4CN(C(=O)/C=C/CN(C)C)C4)cc3)C2)CC1)C(C)C | IC50 | 14.2 nM |
| CCN(C(=O)c1cc(F)ccc1Nc1cncnc1N1CCN(CC2CN(c3ccc(S(=O)(=O)C4CN(C(=O)/C=C/CN5CCCCC5)C4)cc3)C2)CC1)C(C)C | IC50 | 16.6 nM |
| CCN(C(=O)c1cc(F)ccc1Nc1cncnc1N1CCN(CC2CN(c3ccc(S(=O)(=O)N4CC[C@@H](NC(=O)/C=C/CN(C)C)C4)cc3)C2)CC1)C(C)C | IC50 | 11.3 nM |
| CCN(C(=O)c1cc(F)ccc1Nc1cncnc1N1CCN(CC2CN(c3ccc(S(=O)(=O)N4CC[C@H](NC(=O)/C=C/CN(C)C)C4)cc3)C2)CC1)C(C)C | IC50 | 16.7 nM |
| CCC(=O)N[C@@H]1CCN(S(=O)(=O)c2ccc(N3CC(CN4CCN(c5ncncc5Nc5ccc(F)cc5C(=O)N(CC)C(C)C)CC4)C3)cc2)C1 | IC50 | 52.2 nM |
| CCC(=O)Nc1ccc(N2CC(CN3CCN(c4ncncc4Nc4ccc(F)cc4C(=O)N(C(C)C)C(C)C)CC3)C2)cc1 | IC50 | 48.3 nM |
| CCC(=O)c1ccc(N2CC(CN3CCN(c4ncncc4Nc4ccc(F)cc4C(=O)N(CC)C(C)C)CC3)C2)cc1 | IC50 | 49.7 nM |
| CCN(C(=O)c1cc(F)ccc1Nc1cncnc1N1CCN(CC2CN(c3ccc(NC(=O)/C=C/CN(C)C)cc3)C2)CC1)C(C)C | IC50 | 61.9 nM |
| C=CC(=O)N1CC(S(=O)(=O)c2ccc(N3CC(CN4CCN(c5ncncc5Nc5ccc(F)cc5C(=O)N(C(C)C)C(C)C)CC4)C3)cc2)C1 | IC50 | 33.9 nM |
| CCN(C(=O)c1cc(F)ccc1Nc1cncnc1N1C[C@@H](C)N(CC2CN(c3ccc(S(=O)(=O)C4CN(C(=O)/C=C/CN(C)C)C4)cc3)C2)C[C@@H]1C)C(C)C | IC50 | 22.3 nM |
| C=CC(=O)N[C@@H]1CCN(S(=O)(=O)c2ccc(N3CC(CN4CCN(c5ncncc5Nc5ccc(F)cc5C(=O)N(CC)C(C)C)CC4)C3)cc2)C1 | IC50 | 31.8 nM |
| CCN(C(=O)c1cc(F)ccc1Nc1cncnc1N1CCN(CC2CN(c3ccc(S(C)(=O)=O)cc3)C2)CC1)C(C)C | IC50 | 66.5 nM |
| CCN(C(=O)c1cc(F)ccc1Nc1cncnc1N1CCN(C(C)C2CN(c3ccc(S(=O)(=O)C4CN(C(=O)/C=C/CN(C)C)C4)cc3)C2)CC1)C(C)C (stereo not given) | IC50 | 18.4 nM |
| CCC(=O)Nc1cccc(N2CC(CN3CCN(c4ncncc4Nc4ccc(F)cc4C(=O)N(C(C)C)C(C)C)CC3)C2)c1 | IC50 | 95.6 nM |
| C=CC(=O)Nc1ccc(N2CC(CN3CCN(c4ncncc4Nc4ccc(F)cc4C(=O)N(C(C)C)C(C)C)CC3)C2)cc1 | IC50 | 34 nM |
| CCN(C(=O)c1cc(F)ccc1Nc1cncnc1N1CCN(CC2CN(c3ccc([N+](=O)[O-])cc3)C2)CC1)C(C)C | IC50 | 50.2 nM |
| CCN(C(=O)c1cc(F)ccc1Nc1cncnc1N1CCN(CC2CN(c3ccc(C#N)cc3)C2)CC1)C(C)C | IC50 | 38.8 nM |
| CCC(=O)N[C@H]1CCN(S(=O)(=O)c2ccc(N3CC(CN4CCN(c5ncncc5Nc5ccc(F)cc5C(=O)N(CC)C(C)C)CC4)C3)cc2)C1 | IC50 | 61.3 nM |
| CCN(C(=O)c1cc(F)ccc1Nc1cncnc1N1CCN(C(=O)C2CN(c3ccc(S(=O)(=O)C4CN(C(=O)/C=C/CN(C)C)C4)cc3)C2)CC1)C(C)C | IC50 | 12.9 nM |

Reference source for all entries: ChEMBL document CHEMBL6092156
